This collection of values is drawn from paper PMC2566858.

targetOrTestSystem: T1, rGyr_hel (reverse gyrase helicase-like domain) (Thermotoga maritima, UniProt O51934 59-541)
T1 sequence: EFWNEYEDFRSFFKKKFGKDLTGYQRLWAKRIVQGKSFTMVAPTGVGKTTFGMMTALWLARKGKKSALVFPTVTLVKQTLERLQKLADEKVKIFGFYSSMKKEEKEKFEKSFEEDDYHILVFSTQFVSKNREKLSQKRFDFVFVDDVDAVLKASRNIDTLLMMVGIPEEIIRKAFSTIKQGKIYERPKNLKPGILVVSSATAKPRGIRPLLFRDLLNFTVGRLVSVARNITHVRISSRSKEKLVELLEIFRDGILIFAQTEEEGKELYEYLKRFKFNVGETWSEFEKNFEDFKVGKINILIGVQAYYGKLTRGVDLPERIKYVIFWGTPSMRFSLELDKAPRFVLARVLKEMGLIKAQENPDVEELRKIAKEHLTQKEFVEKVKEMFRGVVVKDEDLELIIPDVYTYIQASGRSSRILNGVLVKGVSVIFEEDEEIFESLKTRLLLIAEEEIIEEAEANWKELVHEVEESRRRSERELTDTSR
procedureDetails: fluorescence anisotropy
measurementLabel: Kd (nM)
Express the result in nM but write the number alone.

Lookup: Return Kd for the following binder: 60-base ssDNA (ssDNA) DNA: AAGCCAAGCTTCTAGAGTCAGCCCGTGATATTCATTACTTCTTATCCTAGGATCCCCGTT
Found: 920
